# testedTarget: muscarinic cholinergic receptors
# experiment: 3H-PrBCM binding to muscarinic cholinergic receptors (brain)
# conditions: rat whole brain minus cerebellum; 1.5 nM 3H-PrBCM, 30° C.
# Protocol: ^3 --H-PrBCM binding to muscarinic cholinergic receptors Whole brain minus cerebellum of a rat was homogenized in 10 vol icecold 0.32M sucrose, pH 7.4. The homogenate was centrifuged at 600 g for 10 minutes and the supernatant at 25000 g for 55 min. at 4° C. with rehomogenization of the pellet in 0.32M sucrose. […] Non-specific binding was determined in the presence of 2.5 μM atropine. IC50 values were calculated by log probit analysis.
reportedProperty: pIC50
Answers are plain numbers, as −log10 of the molar value.

As a guide, the following entries are already answered.
compound	pIC50
COc1noc2c1CNCC2C (racemic)	4.92
CCOc1noc2c1CNCC2	5.22
c1ccc(COc2noc3c2CNCC3)cc1	4.49
CCCCOc1noc2c1CNCC2	4.82
COc1noc2c1CN(C)CC2	4.57
CC=CCOc1noc2c1CNCC2	4.85

Provide pIC50 values for the following items, in order.
1. C=CCOc1noc2c1CNCC2
2. CC(C)Oc1noc2c1CNCC2
3. CCOc1noc2c1CN(C)CC2
4. CCCOc1noc2c1CNCC2
5. COc1noc2c1CNCC2

Output:
1. 5.02
2. 5.46
3. 5.62
4. 5.00
5. 4.35

Provide pIC50 values for the following items, in order.
1. CCN1CCc2onc(OC)c2C1
2. C#CCOc1noc2c1CNCC2

Output:
1. 4.82
2. 5.24

* * *

Record form. Attribute: ED50. Fill in for each entry.
# Tested on: heat stimulus reaction in rats
# experiment: Hot Plate Test
# Assay type: in vivo
# conditions: Rattus norvegicus, sc, 0.5 h, s.c., 55° C. hot plate, 30 minutes after injection

As a guide, the following entries are already answered.
CCOc1noc2c1CNCC2 > 98 µmol/kg
COc1noc2c1CN(Cc1ccccc1)CC2 > 71 µmol/kg

Input: // map "c1ccc(COc2noc3c2CNCC3)cc1" to recorded ED50 (system: heat stimulus reaction in rats)
Output: > 75 µmol/kg

* * *

Record form. Attribute: ED50. Fill in for each entry.
# Tested on: heat stimulus reaction in rats
# experiment: Hot Plate Test
# Type: in vivo
# conditions: Rattus norvegicus, sc, 0.5 h, s.c., 55° C. hot plate, 30 minutes after injection

As a guide, the following entries are already answered.
compound	measured
COc1noc2c1CNCC2C (racemic)	> 98 µmol/kg
Oc1noc2c1CNCC2 [THPO, reference compound]	> 90 µmol/kg
CCCOc1noc2c1CNCC2	> 91 µmol/kg
CC(C)Oc1noc2c1CNCC2	> 91 µmol/kg
CC(C)COc1noc2c1CNCC2	> 86 µmol/kg
C#CCOc1noc2c1CNCC2	86 µmol/kg

Provide ED50 values for the following items, in order.
1. COc1noc2c1CNCC2
2. C=CCOc1noc2c1CNCC2
3. CCOc1noc2c1CN(C)CC2
4. CCCCOc1noc2c1CNCC2
5. COc1noc2c1CN(C)CC2
6. CC=CCOc1noc2c1CNCC2

Output:
1: 62 µmol/kg; 2: > 92 µmol/kg; 3: > 91 µmol/kg; 4: > 86 µmol/kg; 5: 99 µmol/kg; 6: > 87 µmol/kg
